Test system: OVCAR-3 ovarian
Experiment: NCI-60 one-dose screen, 48 h
Details: 10 µM unless noted
The panel holds about 83,000 compounds, 20% with a hit somewhere; the sample as a whole holds those more often. Active and inactive are the calls of the source. The calls were made as follows: active = growth percent below 10; inactive = the rest.
// classify into active, inactive

Task: Given Clc1nc(Oc2ccccc2)nc(-c2cn(-c3ccccc3)c3ccccc23)n1 , state the outcome it received in this test.
Result: active

Task: Lookup CC(=O)Oc1cc(C(=O)O)cc(OC(C)=O)c1OC(C)=O
Result: inactive

Task: Lookup O=[N+]([O-])c1ccc(-n2[nH]nnc2=S)cc1
Result: inactive

Task: Lookup O=[N+]([O-])c1ccc(Oc2ccccc2)cc1
Result: inactive

Task: Lookup Cc1ccc2nc3c(nc2c1)-c1cccc2cccc-3c12
Result: inactive

Task: Lookup Cc1ccc(-c2noc(C)n2)cc1
Result: inactive

Task: Lookup Nc1ccccc1SC1CC(=O)N(c2cccc3ccccc23)C1=O (stereo not drawn)
Result: inactive

Task: Lookup COc1ccc2nc(Cl)cc(C)c2c1
Result: inactive

Task: Lookup Cc1ccc(-c2noc(CC(=O)c3ccc([N+](=O)[O-])cc3)n2)cc1
Result: inactive

Task: Lookup NC(=O)c1ccccc1OCC(O)CO (stereo not drawn)
Result: inactive

Task: Lookup O=C(O)CSCc1nc2ccccc2[nH]1
Result: inactive

Task: Lookup CCOC(=O)C(CNc1ccccc1)C(=O)OCC
Result: inactive

Task: Lookup CCCCCCCCCCCCCCCCOc1ccc(C)cc1
Result: inactive

Task: Lookup N#CCCOc1ccccc1
Result: inactive

Task: Lookup Nc1ccc2[nH]c(-c3ccccc3)cc(=O)c2c1
Result: inactive

Task: Lookup COc1cc(C(=O)N/N=C/c2ccc(N(C)C)cc2)cc(OC)c1OC
Result: active

Task: Lookup C1CCCCNCCC1
Result: inactive

Task: Lookup CCC(=O)C(CC)c1cccc(OC)c1 (stereo not drawn)
Result: inactive

Task: Lookup CC(=O)C(/C=N/C(N)=O)=C(/C)O
Result: inactive

Task: Lookup O=C(O)c1cc(C(=O)O)cc([N+](=O)[O-])c1
Result: inactive

Task: Lookup NCCSC(C[N+](=O)[O-])c1ccccc1Cl (stereo not drawn)
Result: active

Task: Lookup CCCCCCCCCCCCOc1ccccc1C=O
Result: inactive

Task: Lookup CC(O)Cn1cnc2c1c(=O)n(C)c(=O)n2C (stereo not drawn)
Result: inactive

Task: Lookup N=C1N=C(N)CS1
Result: inactive

Task: Lookup CN(Cc1ccccc1)Cc1ccccc1
Result: inactive

Task: Lookup OCc1ccccn1
Result: inactive

Task: Lookup N#C/C(=C1C=C/C(=N/O)C(Br)=C/1)c1ccccc1
Result: active

Task: Lookup CC(/C=N/N1C(=O)c2ccccc2C1=O)c1ccccc1 (stereo not drawn)
Result: inactive

====

Test system: UACC-62 melanoma
Experiment: NCI-60 one-dose screen, 48 h (100 = growth as untreated, 0 = no growth, -100 = all killed)
Conditions: 10 µM unless noted
The panel holds about 83,000 compounds, 20% with a hit somewhere; the sample as a whole holds those more often. Activity calls are given as the source filed them. Rule for the calls: active = growth percent below 10; inactive = the rest.
Consider the following compounds; for each one, report its growth.

Task: Fill in the blank: the reported growth of Oc1ccccc1C=NCC1CCC(CN=Cc2ccccc2O)CC1 (configuration not stated) is ____.
Result: 88.7% (inactive)

Task: Lookup CC(/C=N/N1C(=O)c2ccccc2C1=O)c1ccccc1 (configuration not stated)
Result: 111% (inactive)

Task: Lookup Cc1nnc(NC/C=C/c2ccccc2)s1
Result: 104% (inactive)

Task: Lookup Nc1ccccc1SC1CC(=O)N(c2cccc3ccccc23)C1=O (configuration not stated)
Result: 82.6% (inactive)

Task: Lookup NC(=S)NS(=O)(=O)c1ccc(N)cc1
Result: 119% (inactive)

Task: Lookup O=C1c2ccccc2C(=O)N1/N=C/c1ccc2c(c1)OCO2
Result: 90.3% (inactive)

Task: Lookup N#C/C(=C/c1c(O)ccc2ccccc12)C(N)=O
Result: 104% (inactive)

Task: Lookup COc1c2c(c3c(c1OC)c(=O)c1ccccc1n3C)OCO2
Result: 58.8% [100 µM] (inactive)

Task: Lookup CCOC(=O)C(CNc1ccccc1)C(=O)OCC
Result: 103% (inactive)

Task: Lookup CC1C2(C)OC(=N)C(C#N)(C(c3cccc([N+](=O)[O-])c3)O2)C1(C#N)C#N (configuration not stated)
Result: 100% [100 µM] (inactive)

Task: Lookup O=C(O)CSCc1nc2ccccc2[nH]1
Result: 93.9% (inactive)

Task: Lookup CCOC(=O)c1sc(N)nc1-c1ccccc1
Result: 112% (inactive)
